Reference for the values: patent EP2931723B1

system: P. aerug JMI 2686; experiment: MIC, antibacterial and synergistic activity; assay type: cell-based; conditions: P. aerug JMI 2686 (KPC-2 (Cpase)); Ceftazidime + inhibitor at 4 µg/mL
A collection of compounds and their measured MIC Ceftazidime + inhibitor
Please state the figure in µg/mL; there is no need to write the unit.

Sample answers from the record:
>  <Smiles input>
O=C(NO[C@H]1CCNC1)[C@@H]1CC[C@@H]2CN1C(=O)N2OS(=O)(=O)O

>  <Target>
P. aerug JMI 2686

>  <MIC Ceftazidime + inhibitor / µg/mL>
16

$$$$
>  <Smiles input>
O=C(NO[C@H]1CCCNC1)[C@@H]1CC[C@@H]2CN1C(=O)N2OS(=O)(=O)O

>  <Target>
P. aerug JMI 2686

>  <MIC Ceftazidime + inhibitor / µg/mL>
16

$$$$

Form: compound = NCCONC(=O)[C@@H]1CC[C@@H]2CN1C(=O)N2OS(=O)(=O)O ; MIC Ceftazidime + inhibitor = 16
